Test system: IGROV-1
Test: NCI tumour cell line growth inhibition, 48 h
Calls of active or inactive are those of the source. No stated cut-off is given here; in the data, active = GI50 up to about 1.1 µM and inactive = higher.
Outcomes: active, inactive

- molecule: "C#C[C@@H](CCCC)OC(=O)N[C@H](C)c1ccccc1"
  targetOrSystem: "IGROV-1"
  assignedLabel: "inactive"
- molecule: "O=C1c2cc([N+](=O)[O-])ccc2-c2cccc(F)c21"
  targetOrSystem: "IGROV-1"
  assignedLabel: "inactive"
- molecule: "Oc1nc2cc3nc(O)c(O)nc3cc2nc1O"
  targetOrSystem: "IGROV-1"
  assignedLabel: "inactive"
- molecule: "O=C1C2=C(c3ccccc31)C(c1ccc([N+](=O)[O-])cc1)NC(S)=N2 (stereo unspecified)"
  targetOrSystem: "IGROV-1"
  assignedLabel: "inactive"
- molecule: "CC1=C2C(=O)c3ccccc3C(=O)[C@H]2[C@H]2CCO[C@H]2O1"
  targetOrSystem: "IGROV-1"
  assignedLabel: "inactive"
- molecule: "O=C(c1ccc(Cl)cc1)N1CCN=C1c1cc2ccccc2c2ccccc12"
  targetOrSystem: "IGROV-1"
  assignedLabel: "inactive"
- molecule: "C/C(=N\\NC(=S)N1CC2CCC(CC2)C1)c1nccs1"
  targetOrSystem: "IGROV-1"
  assignedLabel: "active"
- molecule: "C=CCCON(C(=O)OC(C)(C)C)C(C)(C)C"
  targetOrSystem: "IGROV-1"
  assignedLabel: "inactive"
- molecule: "Cc1ccc(S(=O)(=O)NC(=O)C2C(=O)CC3(CCCCC3)CC2=O)cc1"
  targetOrSystem: "IGROV-1"
  assignedLabel: "inactive"
- molecule: "CCOC1c2cc(C(C)C)c(O)c(O)c2[C@@]23CCCC(C)(C)C2C1OC3=O (stereo partly specified)"
  targetOrSystem: "IGROV-1"
  assignedLabel: "inactive"
- molecule: "CCCCCCCC/C=C/CCCCCCCC1CC(O)C(=O)O1 (stereo unspecified)"
  targetOrSystem: "IGROV-1"
  assignedLabel: "inactive"

###

Reported GI50 values follow for various compounds
System: COLO 205
Test: NCI tumour cell line growth inhibition, 48 h
The source made the active and inactive calls. Cut-off read from the data, not from the text of the source: active = GI50 up to about 1.1 µM and inactive = higher. Residues, ends and D or L forms follow the SMILES beside them. *: point of attachment. Cbz = O=C(OCc1ccccc1)*

- compound: "C=CCN1C(N)=C(C(N)=O)S/C1=C1/SC(=S)N(c2ccc(C)cc2)C1=O"
  targetOrSystem: "COLO 205"
  GI50: "> 100 µM (inactive)"
- compound: "O=C(O)C(=O)Cc1ccc2c(c1)OCO2"
  targetOrSystem: "COLO 205"
  GI50: "> 100 µM (inactive)"
- compound: "Cc1c(Cl)ccc2c1NC(=O)C2(O)C(C(=O)c1ccccc1)c1ccccc1 (stereo not given)"
  targetOrSystem: "COLO 205"
  GI50: "> 100 µM (inactive)"
- compound: "NC(Cc1cc(I)c(Oc2ccc(O)c(I)c2)c(I)c1)C(=O)O (stereo not given)"
  targetOrSystem: "COLO 205"
  GI50: "> 100 µM (inactive)"
- compound: "CCOC(=O)CCC(NC(=O)OCc1ccccc1)C(=O)NC(CCC(=O)OCC)C(=O)OCC (stereo not given) (Cbz-Glu(OEt)-Glu(OEt)-OEt; configuration not given here)"
  targetOrSystem: "COLO 205"
  GI50: "> 100 µM (inactive)"
- compound: "C/C(=N\\NC(=S)N1CC2CCC(CC2)C1)c1nccs1"
  targetOrSystem: "COLO 205"
  GI50: "0.0145 µM (active)"
- compound: "O=Cc1[nH]c(=O)[nH]c(=O)c1C(=O)O"
  targetOrSystem: "COLO 205"
  GI50: "> 100 µM (inactive)"
- compound: "CNC1Cc2c[nH]c3cccc(c23)C12C=C(C)C(=O)O2 (stereo not given)"
  targetOrSystem: "COLO 205"
  GI50: "> 100 µM (inactive)"
- compound: "CSC(=S)Nc1cccc(C)n1"
  targetOrSystem: "COLO 205"
  GI50: "> 100 µM (inactive)"
- compound: "COc1ccc(-c2c3c(cc4cc5c(cc24)OCO5)C(=O)OC3)cc1OC"
  targetOrSystem: "COLO 205"
  GI50: "0.383 µM (active)"
